tested system: SHP2 (Homo sapiens (Human))
Sequence (Q06124 whole entry): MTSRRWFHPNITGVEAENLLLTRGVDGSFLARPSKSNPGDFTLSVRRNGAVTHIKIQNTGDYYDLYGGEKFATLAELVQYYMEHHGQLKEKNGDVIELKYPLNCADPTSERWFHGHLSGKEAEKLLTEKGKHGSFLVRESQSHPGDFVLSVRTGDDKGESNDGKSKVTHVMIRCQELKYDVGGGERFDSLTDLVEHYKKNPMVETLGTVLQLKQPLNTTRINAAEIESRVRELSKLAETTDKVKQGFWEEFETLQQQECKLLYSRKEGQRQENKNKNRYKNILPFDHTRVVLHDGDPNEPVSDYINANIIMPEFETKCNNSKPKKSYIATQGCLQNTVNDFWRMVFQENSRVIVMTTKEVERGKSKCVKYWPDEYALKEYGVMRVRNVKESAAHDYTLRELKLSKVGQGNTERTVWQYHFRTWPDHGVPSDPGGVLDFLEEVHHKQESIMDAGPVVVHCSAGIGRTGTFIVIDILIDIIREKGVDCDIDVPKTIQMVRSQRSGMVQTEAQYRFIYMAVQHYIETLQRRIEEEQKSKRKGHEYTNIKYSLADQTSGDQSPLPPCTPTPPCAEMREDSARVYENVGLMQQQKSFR
procedure text: Phosphatase assay (single dose inhibition), DiFMUP substrate
Format: biochemical
condition context: compound at 0.1 μM (100 nM); SHP2 0.5 nM activated with dPEG8 peptide; DiFMUP 12 μM; relative to DMSO control
Item-by-item account of inhibition at 0.1 µM
Kindly answer with a numeric value in %, unit omitted.

Examples from the recorded data:
>  <molecule>
C=CC(=O)Nc1cccc(Sc2ncc(N3CCC(C)(NC(=O)OC(C)(C)C)CC3)nc2N)c1Cl

>  <unit spec>
%

>  <inhibition at 0.1 µM>
49

$$$$
>  <molecule>
CN1C(=O)C(F)(C(F)(F)F)c2c(Sc3ncc(N4CCC5(CC4)COC[C@H]5N)nc3N)cccc21 (stereo partly shown)

>  <unit spec>
%

>  <inhibition at 0.1 µM>
61

$$$$
>  <molecule>
CN(C)C(=O)C(=O)c1ccc(C(=O)Nc2nccc(Sc3ncc(N4CCC(C)(CN)CC4)nc3N)c2Cl)cc1

>  <unit spec>
%

>  <inhibition at 0.1 µM>
30

$$$$
>  <molecule>
Nc1nc(N2CCC3(CC2)COC[C@H]3N)cnc1Sc1ccnc2c1C(F)(F)C(=O)N2

>  <unit spec>
%

>  <inhibition at 0.1 µM>
81

$$$$

**Query** Entry CN(C)C(=O)C(=O)Nc1cccc(Sc2ncc(N3CCC(C)(CN)CC3)nc2N)c1Cl : reported inhibition at 0.1 µM = ?
**Result** 57

**Query** Entry CN(C)C(=O)C(=O)c1ccc(C(=O)Nc2cccc(Sc3ncc(N4CCC(C)(N)CC4)nc3N)c2Cl)cc1 : reported inhibition at 0.1 µM = ?
**Result** 60
